Hello, the source for this data is patent US5821243A, in case you need it.

Tested on: MDCK cells
Assay: Cell growth assay (MTT) in MDCK cells
Assay type: cell-based, canine
Conditions: Canis lupus familiaris, 2-3 days, read-out: IC50, concentration required to achieve a 50% reduction of optical density (cell growth)
Experimental: Effects of the pyridazine derivatives of the invention on cell growth were determined in MDCK cells in 96 well plates by a tetrazolium-based calorimetric method (R. Pauwels et al., J. Virol. Methods, 20, 309-321 (1988)). This assay detects the in situ reduction of 3-(4,5-dimethylthiazol-2-yl)-2,5-diphenyltetrazolium bromide (MTT) by viable cells. […] The drug concentration resulting in a reduction of optical density by 50% was determined.
pIC50: −log10 of the molar value.
Measured pIC50 values are reported for all entries that follow.
metric: pIC50

{"smiles_text": "CC1=NN(c2ccc(S(N)(=O)=O)cc2)C(=O)C(=O)C1=O", "reported_value": "< 4.00"}
{"smiles_text": "CC1=NN(c2ccc(C(=O)O)cc2C)C(=O)C(=O)C1=O", "reported_value": "< 3.70"}

* * *

Measured IC50 values are reported for all entries that follow.
Target: influenza A/WSN virus transcriptase (Influenza A virus, UniProt P03427+P03430+P15659)
Experiment: biochemical
Conditions: 45 minutes at 31° C, 1% DMSO; read-out: IC50, concentration required to achieve 50% inhibition of influenza A/WSN virus transcriptase activity

{"compound": "CC1=NN(c2ccc(-c3nnn[nH]3)cc2)C(=O)C(=O)C1=O [Example 6]", "unit_abbrev": "nM", "IC50": 200}
{"compound": "CC1=NN(c2ccc(C(=O)O)cc2C)C(=O)C(=O)C1=O [Example 1]", "unit_abbrev": "nM", "IC50": 100}
{"compound": "CC1=NN(c2ccc(S(N)(=O)=O)cc2)C(=O)C(=O)C1=O [Example 4]", "unit_abbrev": "nM", "IC50": 1000}
